- target_of_assay: IRAK4 (Homo sapiens, UniProt Q9NWZ3)
- Construct: endogenous in cells; host or cells: OCI-LY10
- Sequence (Q9NWZ3 whole entry): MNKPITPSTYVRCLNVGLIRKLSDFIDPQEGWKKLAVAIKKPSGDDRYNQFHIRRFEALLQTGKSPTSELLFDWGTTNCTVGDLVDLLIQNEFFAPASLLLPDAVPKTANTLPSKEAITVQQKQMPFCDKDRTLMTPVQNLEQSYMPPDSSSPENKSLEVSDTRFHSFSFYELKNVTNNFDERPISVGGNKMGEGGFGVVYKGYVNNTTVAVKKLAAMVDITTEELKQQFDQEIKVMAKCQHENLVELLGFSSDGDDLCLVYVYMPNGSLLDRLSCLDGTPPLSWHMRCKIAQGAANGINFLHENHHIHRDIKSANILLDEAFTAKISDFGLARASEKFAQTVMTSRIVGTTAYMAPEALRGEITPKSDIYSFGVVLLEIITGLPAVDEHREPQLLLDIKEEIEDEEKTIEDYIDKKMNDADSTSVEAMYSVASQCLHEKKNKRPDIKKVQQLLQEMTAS
- method_description: IRAK4 MSD Degradation in OCI-LY10
- Assay type: cell-based
- assay_context: OCI-LY10 cells, 24 hrs incubation, read-out: IRAK4 degradation in OCI-LY10 at 24 hrs: DC50
test_readout: DC50

Query string: Consider the compound CC(C)(O)COc1cc2nn([C@H]3CC[C@H](CN4CCC5(CC4)CC(CCNc4cccc6c4C(=O)N(C4CCC(=O)NC4=O)C6=O)C5)CC3)cc2cc1NC(=O)c1cccc(C(C)(F)F)n1 (some centres unmarked) . State its measured DC50.
Result string: 50 to 100 nM

Query string: # return recorded DC50 for input CN(CCCO[C@H]1C[C@H](Nc2cccc3c2C(=O)N(C2CCC(=O)NC2=O)C3=O)C1)C[C@H]1CC[C@H](n2cc3cc(N(C)C(=O)c4cccc(C(F)(F)F)n4)c(C(C)(C)O)cc3n2)CC1 (some centres unmarked)
Result string: 500 to 1000 nM

Query string: Query DC50 for C[C@@]1(CN2CCC3(CC2)CC(CCNc2cccc4c2C(=O)N(C2CCC(=O)NC2=O)C4=O)C3)Cc2cc(NC(=O)c3cccc(C(F)(F)F)n3)c(N3CCOCC3)cc2O1 (some centres unmarked)
Result string: 500 to 1000 nM

Query string: Annotate the compound "COc1cc2nn([C@H]3CC[C@H](CN4CC5(CC(CCNc6cccc7c6C(=O)N([C@H]6CCC(=O)NC6=O)C7=O)C5)C4)CC3)cc2cc1NC(=O)c1cccc(C(C)(F)F)n1" with its measured DC50.
Result string: < 50 nM

# input for lookup
Query string: Provide only the value of recorded DC50 for COc1cc2nn([C@H]3CC[C@H](CN4CCC5(CC4)CC(CCNc4cccc6c4C(=O)N(C4CCC(=O)NC4=O)C6=O)C5)CC3)cc2cc1NC(=O)c1cccc(C(C)(F)F)n1 (single isomer, unassigned) [I-129]
Result string: 50 to 100 nM
